Where do these numbers come from? They come from patent US8110577B2.

Test system: panel of 8 lymphoma cell lines
Experiment: Cell viability (ATP) in a panel of 8 lymphoma cell lines
Assay type: cell-based
Conditions: ATP endpoint assay, read-out: EC50 values (range over the panel)
Description: EC50 values for percentage viability (3-day exposure) were determined using 2 different methods, trypan blue staining and an ATP assay. Trypan blue staining relies on the ability of healthy cells with intact membranes to exclude dyes. As cells start to undergo programmed cell death membrane integrity becomes compromised allowing dye entry. The % cells staining positive for trypan blue relative to the total cell number therefore reflects % cell viability (% viability). […]
parameter: EC50

Lab note: `O=C(CCCCCC(C(=O)Nc1ccccc1)C(=O)Nc1ccccc1)NO` gave EC50 of 0.02 to 0.08 µM
